Test system: BE2-M17 (Neuroblastoma)
experiment_notes: combination Emax (second highest fraction inhibited in the dose matrix, 72 h); higher = more inhibition; extreme values may be limits of the assay
Could you label it yes if measured combination Emax is 0.6 or higher, and no otherwise?

compound	label_class
COc1cccc(OCCCN)c1-c1cc(Nc2cnc(C#N)cn2)n[nH]1 [Prexasertib] + O=C(c1cc(Cc2n[nH]c(=O)c3ccccc23)ccc1F)N1CCN(C(=O)C2CC2)CC1 [Olaparib] (first compound max 1 µM, 7x7, partner max 10 µM)	yes
CC1(C)CCC(CN2CCN(c3ccc(C(=O)NS(=O)(=O)c4ccc(NCC5CCOCC5)c([N+](=O)[O-])c4)c(Oc4cnc5[nH]ccc5c4)c3)CC2)=C(c2ccc(Cl)cc2)C1 [Venetoclax] + Cn1cnc2c(F)c(Nc3ccc(Br)cc3Cl)c(C(=O)NOCCO)cc21 [Selumetinib] (first compound max 1 µM, 7x7, partner max 3 µM)	yes
C[C@@H](c1ccc2nccn2c1)n1nnc2ncc(-c3cnn(C)c3)nc21 [Savolitinib] + CC1(C)CCC(CN2CCN(c3ccc(C(=O)NS(=O)(=O)c4ccc(NCC5CCOCC5)c([N+](=O)[O-])c4)c(Oc4cnc5[nH]ccc5c4)c3)CC2)=C(c2ccc(Cl)cc2)C1 [Venetoclax] (first compound max 1 µM, 7x7, partner max 1 µM)	no
Cc1cc2ncnn2cc1Nc1ncc2c(n1)n(C1CCOCC1)c(=O)n2C [AZD7648] + O=C(c1cc(Cc2n[nH]c(=O)c3ccccc23)ccc1F)N1CCN(C(=O)C2CC2)CC1 [Olaparib] (first compound max 10 µM, 7x7, partner max 10 µM)	no

Here's the next entry for you.
Asked: Please indicate if the recorded combination Emax for CN(CCO)CC[C@H](CSc1ccccc1)Nc1ccc(S(=O)(=O)NC(=O)c2ccc(N3CCC([C@@H](O)c4ccccc4-c4ccc(Cl)cc4)CC3)cc2)cc1S(=O)(=O)C(F)(F)F [AZD4320] + C[C@@H]1COCCN1C2=NC(=NC(=C2)C3(CC3)[S@](=N)(=O)C)C4=C5C=CNC5=NC=C4 [AZD6738] (first compound max 1 µM, 7x7, partner max 10 µM) meets or exceeds 0.6.
Given back: yes

The reported numbers originate from the supplement of paper PMC11061612.
